test system: strain of German cockroaches that is resistant to multiple insecticides; test: Topical application test on male adult German cockroach, multiple-insecticide-resistant strain; assay type: in vivo; details: calculated by formula (2) from the LD50 values of the resistant and susceptible strains
Listing: Resistance ratio of selected compounds
Answer as a number with no unit attached.

Query: # get_value(readout='Resistance ratio', item= O=C(Nc1c(Br)cc(C(F)(C(F)(F)F)C(F)(F)F)cc1C(F)(F)F)c1cccc(N(CC2CC2)C(=O)c2ccc(F)cc2)c1F [Cyproflanilide, cyproflanilide] )
Reply: 1.2

Query: # get_value(readout='Resistance ratio', item= CON=CNC(=O)c1ccc(C2=NOC(c3cc(Cl)cc(Cl)c3)(C(F)(F)F)C2)cc1C (stereo not drawn) [Fluxametamide, fluxametamide] )
Reply: 46

Query: # get_value(readout='Resistance ratio', item= CN(C(=O)c1cc(-c2cnn(-c3c(Cl)cc(C(F)(C(F)(F)F)C(F)(F)F)cc3Cl)c2)cnc1Cl)C1CC1 )
Reply: 2.4

Query: # get_value(readout='Resistance ratio', item= CCN1OCC(NC(=O)c2ccc(C3=NOC(c4cc(Cl)c(F)c(Cl)c4)(C(F)(F)F)C3)cc2C)C1=O (stereo not drawn) )
Reply: 1.7
